The reported measurements were obtained from patent US4018786A.

# Test Method Notes: LD50/24 h by the method of Miller & Tainter, intravenous route, mice
# Conditions Used: mouse, in vivo, read-out: LD50 /24 h/kg of body weight
Criterion: LD50 at 24 h strictly less than 90 mg/kg. Met: 1 (yes). Not met: 0 (no).

Observe how each entry below is paired with its result.
Regarding CCN(CC)CC=C1CN=C(N2CCOCC2)S1 , kindly confirm whether its LD50 at 24 h is beneath 90 mg/kg.
0 (no)

Regarding CCN(CC)CC=C1CN=C(NC(C)(C)CC(C)(C)C)S1 , kindly confirm whether its LD50 at 24 h is beneath 90 mg/kg.
1 (yes)

Now look at this one.
Regarding CCN(CC)CC=C1CN=C(NC2CCCCC2)S1 , kindly confirm whether its LD50 at 24 h is beneath 90 mg/kg.
1 (yes)
